- Test system: 786-0
- Test Method Notes: NCI tumour cell line growth inhibition, 48 h
Calls of active or inactive are those of the source. No stated cut-off is given here; in the data, active = GI50 up to about 1.1 µM and inactive = higher.
For each of the molecules below, state its GI50.

>>> df
                                   molecule       recorded_value
0             Cn1c(=O)n(C2(C)CSC2)c2ccccc21  > 100 µM (inactive)
1  CC1(C)CCCCC1/C=C/C(CC(O)(C(F)(F)F)C(F)(F)F)=N\Nc1ccc([N+](=O)[O-])cc1[N+](=O)[O-] (centres undefined)   1.92 µM (inactive)
2  CCOP(=O)(C=C=C1CCC2[C@@H]3CCc4cc(OC)ccc4C3CC[C@]12C)OCC (some centres undefined)   12.3 µM (inactive)
3            Cc1nc2cn3c(c2c(=O)[nH]1)CCCCC3  > 100 µM (inactive)

Batch request: GI50 per item, same order as input.
1. Cc1csc2c1C(=O)c1ccsc1C2=O
2. CC(Oc1ccc2cc(C(=O)c3ccccc3)c(=O)oc2c1)C(=O)O (centres undefined)
3. CCOC(=O)Cc1nc2ccccc2s1
4. Cc1ccc2c(c1)C(=O)c1nc(C)ccc1C2=O
5. N[C@@H](CCC(=O)NCP(=O)(O)O)C(=O)O
6. CC[n+]1c(/C=C/c2cc(C(=O)OC)n3c2sc2ccccc23)sc2ccccc21
7. OC1(c2cccs2)c2cccc(Cl)c2C(O)(c2cccs2)c2c(Cl)cccc21 (centres undefined)

["4.63 µM (inactive)", "> 100 µM (inactive)", "18.9 µM (inactive)", "43.8 µM (inactive)", "> 100 µM (inactive)", "19.1 µM (inactive)", "34.4 µM (inactive)"]

// each listed molecule needs a value for GI50
1. CCC(=O)O[C@H]1CC[C@H]2[C@@H]3CCC4=C/C(=N/NC(=O)c5cccc6c(=O)c7ccccc7[nH]c56)CC[C@]4(C)[C@H]3CC[C@]12C
2. COc1cccc(/C=N/[N+](C)(C)C)c1O
3. CCCCC1Cc2ccccc2-c2nc3ccccc3n21 (centres undefined)
4. COC1=C(Br)C(O)C2(C=C1Br)CC(C(=O)NCCCCNC(=O)C1=NOC3(C=C(Br)C(OC)=C(Br)C3O)C1)=NO2 (centres undefined)
5. CCc1c2c(cc3c1CC1(C3)Cc3cc4c(c(C(=O)OC)c3C1)CCCC4)CCCC2 (centres undefined)
6. C=C(C)C(=O)O[C@H]1C[C@@]23O[C@@H]2CCC(=C[C@H]2OC(=O)C(=C)[C@H]12)COC3O (some centres undefined)
7. COc1ccc(/C=C2\CCc3ccccc3C2=O)cc1OC

["5.11 µM (inactive)", "> 10 µM (inactive)", "25.2 µM (inactive)", "31.1 µM (inactive)", "12.1 µM (inactive)", "35.3 µM (inactive)", "34.5 µM (inactive)"]

// input: 2 molecules below; output: GI50 for each
1. COc1cc(C2C(Cl)C(=O)N2NC(=O)c2ccc(N)cc2)ccc1O (centres undefined)
2. Cc1ccccc1NC(=O)C(=O)CC(=O)c1sc(Nc2ccccc2[N+](=O)[O-])nc1C

19.1 µM (inactive)
21.5 µM (inactive)

# batch: return GI50 for each of the 6 molecules below
1. CC(=O)O[C@H]1CCC2[C@@H]3CCC4NC(=O)C(C#N)C[C@]4(C)C3CC[C@@]21C (some centres undefined)
2. CN(C)/C=N\c1cc[nH]c(=O)n1
3. COC(=O)c1c[nH]cc1CCc1c[nH]cc1C(=O)OC
4. CC(=O)Nc1ccc(/C=C/C(=O)c2sc(-c3nc(C)c(C(=O)/C=C/c4ccc(NC(C)=O)cc4)s3)nc2C)cc1
5. CC(=O)Oc1ccc(/C=C/C(=O)OCCOC(=O)/C=C/c2ccc(OC(C)=O)c(OC(C)=O)c2)cc1OC(C)=O
6. CC(=O)NS(=O)(=O)c1ccc(NC(=O)c2c3ccccc3nc3ccccc23)cc1

> 10 µM (inactive)
> 100 µM (inactive)
> 100 µM (inactive)
> 100 µM (inactive)
5.06 µM (inactive)
> 100 µM (inactive)

Provide each entry's GI50 from the list below.
1. CN(C)c1cccc2c(S(=O)(=O)NCCN)cccc12 [DANSYL ETHYLENEDIAMINE]
2. CNC(=O)C1CCc2nnc(-c3ccccc3)n21 (centres undefined)
3. O=C1NC(=O)C2C1C1C=C3c4ccccc4N(c4ccccc4)C32[C@H]2C(=O)NC(=O)[C@@H]12 (some centres undefined)

1. > 100 µM (inactive)
2. > 100 µM (inactive)
3. > 100 µM (inactive)

* * *

- System: M14
- Test Method Notes: NCI tumour cell line growth inhibition, 48 h
Active and inactive are the calls of the source. Cut-off read from the data, not from the text of the source: active = GI50 up to about 1.1 µM and inactive = higher.
Hi there, I'd appreciate the recorded GI50 for every entry that follows.

A selection of reference data follows.
In [3]: df
Out[3]:
                                   molecule  measurement_label       recorded_value
0  CC(C)NCC(O)COC(=O)c1cccs1 (stereo unspecified)               GI50  > 100 µM (inactive)
1  CC(C)=CC(=O)Cc1nc2ccc([N+](=O)[O-])cc2[nH]c1=O               GI50  > 100 µM (inactive)
2  CCOC(=O)c1c(Sc2ccc([N+](=O)[O-])cc2[N+](=O)[O-])nc2c3ccccc3ccn12               GI50  > 100 µM (inactive)
3   CCOC(=O)C(=O)Nc1c(N(CC)CC)n2ccccc2nc1=O               GI50  > 100 µM (inactive)
4  Cc1ccc(NC(=O)/C(=N/NC(=O)C[N+](C)(C)C)c2nc3ccccc3nc2O)cc1               GI50  > 100 µM (inactive)
5             COc1cccc(/C=N/[N+](C)(C)C)c1O               GI50   > 10 µM (inactive)

List GI50 for every entry below, keeping the order given.
1. CCCCc1ccc(Nc2nc(Cl)c3ncn(C4CC(Oc5ccc(C)cc5)C(COc5ccc(C)cc5)O4)c3n2)cc1 (stereo unspecified)
2. Oc1ccc(/C=N/CC2CCCN3CCCCC23)cc1 (stereo unspecified)
3. O=C(CC1(O)C(=O)Nc2ccccc21)c1ccc(F)cc1 (stereo unspecified)
4. CCCC(=O)n1[nH]c(=O)n(C(C)(C)C)c1=O

1. > 100 µM (inactive)
2. 26.5 µM (inactive)
3. > 100 µM (inactive)
4. > 100 µM (inactive)

Hi, could you look up GI50 for each item in my list?
1. CC1=C(C(=O)Nc2ccc([N+](=O)[O-])cc2)C(c2ccc3c(c2)OCO3)C(C(=O)Nc2ccc([N+](=O)[O-])cc2)=C(C)N1
2. CC(=O)Oc1ccc2c(c1)C(=O)c1nc(C)c(C)nc1C2=O
3. CC#CC(O)(C(=O)OC1CC(C)N(C)C(C)(C)C1)C1CCCC1 (stereo unspecified)
4. Brc1ccc2c3c1[C@H]1O[C@H]1c1cccc(c1-3)[C@@H]1O[C@H]21
5. CC(C)c1cc(OCC(O)CO)cc(C(C)C)c1 (stereo unspecified)

1: 6.78 µM (inactive); 2: 38.1 µM (inactive); 3: > 100 µM (inactive); 4: 17.2 µM (inactive); 5: > 100 µM (inactive)

Fill in the blank: the reported GI50 of `CC(=O)OCCOCn1c2c(c(=O)[nH]c1=O)CCC2` is ____. > 100 µM (inactive)

* * *

- Test system: NCI-H460
- Test Method Notes: NCI tumour cell line growth inhibition, 48 h
Active and inactive are the calls of the source. No stated cut-off is given here; in the data, active = GI50 up to about 1.1 µM and inactive = higher.
Measurement Label: GI50

Illustrative cases are given below, each with its answer.
Molecule	GI50
CC1(C)CCCCC1/C=C/C(CC(O)(C(F)(F)F)C(F)(F)F)=N\Nc1ccc([N+](=O)[O-])cc1[N+](=O)[O-] (stereo not given)	0.604 µM (active)
COC(=O)[C@]12CSCN1C(=O)C(C(C)=O)=NN2C(=O)[C@](OC)(c1ccccc1)C(F)(F)F	> 100 µM (inactive)
CC(C)(CO)CNc1nc(N)nc(Cl)c1/C=N/O	30 µM (inactive)

Batch of 3 molecules: report GI50 for each.
1. Cc1ccc(NC(=O)CCC(=O)C(C#N)c2ccc(Cl)cc2)cc1C (stereo not given)
2. O=C(Nc1ccccc1)n1[nH]c(=O)n(-c2ccccc2)c1=O
3. CC(=O)OCC1OC(n2c3c(c(-c4ccc(C)cc4)c(C#N)c2=S)C(=O)CC(C)(C)C3)C(OC(C)=O)C(OC(C)=O)C1OC(C)=O (stereo not given)

["> 100 µM (inactive)", "> 100 µM (inactive)", "42.2 µM (inactive)"]

* * *

- Tested on: NCI-H460
- Test Method Notes: NCI tumour cell line growth inhibition, 48 h
Active and inactive are the calls of the source. No stated cut-off is given here; in the data, active = GI50 up to about 1.1 µM and inactive = higher.
For each of the molecules below, state its GI50.

                                   molecule  measurement_label       recorded_value
0  CCOC(=O)c1cc2c([N+](=O)[O-])c(NC(C)=O)ccc2s1               GI50  > 100 µM (inactive)

Quick batch: GI50 for everything below.
1. O=C1c2ccccc2C(=O)N1CCCC(=O)n1cc(F)c(=O)[nH]c1=O
2. CC(C)NCC(O)COC(=O)c1cccs1 (stereo not drawn)

1: 2.68 µM (inactive); 2: > 100 µM (inactive)
